This collection of values is drawn from ChEMBL document CHEMBL1155856.

System: Rattus norvegicus
Protocol Text: Toxicity in albino rat with hyperemia assessed as ulcerogenic activity at 100 mg/kg, po after 5 hrs
Assay type: organism-based
Design: dose 100 mg/kg, route oral
Particulars: in vivo
For each entry below, report its Activity value.
Answers are plain numbers, in %.

stdin: Could you please provide reported Activity for COc1cc(OC)nc(Oc2ccc(C)cc2C(=O)c2ccc(C)cc2)n1 ? Thanks!
stdout: 50

# batch size: 2; output Activity per entry
1. COc1cc(OC)nc(Oc2ccc(Br)cc2C(=O)c2ccc(Cl)cc2)n1
2. COc1cc(OC)nc(Oc2ccc(F)cc2C(=O)c2ccc(Cl)cc2)n1

stdout:
[50, 30]
